target: SYK(M450I)-NL (Homo sapiens, UniProt P43405, M450I); construct: host or cells: HEK293; test: NanoBRET assay in digitonin permeabilized HEK293 cells, SYK(M450I)-NL; type: cell-based; conditions: fixed concentration of tracer 8, average ± SEM, read-out: IC50, SYK(variant)-NL M450I
property-name: pIC50
Recall that pIC50 is obtained by taking minus log10 of the concentration measured in molar.

Enquiry: What value of measured pIC50 is listed for Cc1cc(Nc2nccc(C)n2)cc(-c2cnc([C@@]3(O)CC[C@H](C(=O)O)C(C)(C)C3)s2)c1 ?
Return: 7.54

====

molecular target: SYK(P342T)-NL (Homo sapiens, UniProt P43405, P342T); construct: host or cells: HEK293; experiment: NanoBRET cellular target engagement assay in intact live HEK293 cells, SYK(P342T)-NL; assay type: cell-based; details: intact HEK293 cells, 125 nM tracer 8, average of triplicate ± SEM; read-out: SYK(P342T) IC50
So I've got a bunch of molecules here, and I need their IC50 values.
Kindly answer with a numeric value in nM, unit omitted.

Enquiry: What value of measured IC50 is listed for Cc1cc(Nc2nccc(C)n2)cc(-c2cnc([C@@]3(O)CC[C@H](C(=O)O)C(C)(C)C3)s2)c1 [MRL-SYKi] ?
Return: 410

Enquiry: What value of measured IC50 is listed for CCS(=O)(=O)N1CCN(c2ccc(Nc3ncc(C(N)=O)c(NC4CC4)n3)cc2)CC1 [Cerdulatinib] ?
Return: 360
